tested on: HS 578T breast; experiment: NCI tumour cell line growth inhibition, 48 h
Readout Name: TGI

| Compound | Result |
| --- | --- |
| O=C(O)c1ccn(-c2cccc(-n3ccc(C(=O)O)n3)n2)n1 | > 100 µM |
| C=C1C(=O)OC2C1C(OC(=O)/C(C)=C/C)CC(O)(CCl)C1C(O)C3OC3(C)C21O (stereo not drawn) | > 50 µM |
| O=c1ccn(CC2(CO)CC(Cc3ccccc3)C2)c(=O)[nH]1 (stereo not drawn) | > 100 µM |

====

TGI values by entry
tested on: K-562 leukemia; experiment: NCI tumour cell line growth inhibition, 48 h

| Line Notation | TGI |
| --- | --- |
| C=C1c2[nH]c3c([N+](=O)[O-])c(OC)ccc3c2CCN1C(C)=O | > 100 µM |
| CN1CCN(CCCBr)CC1 | > 100 µM |
| CCN(CC)c1ccc2cc(C(=O)Nc3cccc4ccccc34)c(=N)oc2c1 | > 100 µM |
| CCOC(=O)c1cc2c(C(=O)c3ccc([N+](=O)[O-])cc3)c(C(C)=O)ccc2[nH]1 | > 100 µM |
| CC(C)(O)CC(=O)NCCn1ccc2ncnc(Nc3ccc(Oc4cccc(C(F)(F)F)c4)c(Cl)c3)c21 | > 10 µM |
| Cc1ccccc1NC(=O)C(=O)CC(=O)c1c(C)n([O-])c2ccccc2[n+]1=O | > 100 µM |
| C/C(Nc1ccc(F)cc1)=C1/CCOC1=O | > 100 µM |

====

TGI values by entry
tested on: BT-549 breast; assay: NCI tumour cell line growth inhibition, 48 h
Readout Name: TGI

| Compound | Result |
| --- | --- |
| COc1ccc(NC(C)=O)cc1N1C(=O)/C(=C\c2cc(OC)c(OC)c(OC)c2)SC1c1ccccc1 (stereo not given) | > 100 µM |
| CCCOC(=O)N1CCN(/[N+]([O-])=N/Oc2ccc([N+](=O)[O-])cc2[N+](=O)[O-])CC1 | 11.7 µM |
| O=c1ccn(CC2(CO)CC(Cc3ccccc3)C2)c(=O)[nH]1 (stereo not given) | > 100 µM |
| O=C(Nc1ccccc1)N(CCCCN(Cc1ccccc1)C(=O)Nc1ccccc1)Cc1ccccc1 | > 100 µM |
| CC1(C)CC(=O)c2c(nc3ccc4ccccc4c3c2-c2ccc(NC(=O)CCCCCCCCC(=O)Nc3ccc(-c4c5c(nc6ccc7ccccc7c46)CC(C)(C)CC5=O)cc3)cc2)C1 | > 100 µM |

====

test system: 786-0 renal; assay: NCI tumour cell line growth inhibition, 48 h
TGI values by entry
Readout Name: TGI

| Molecule | Result |
| --- | --- |
| CCc1cccc(C)c1NC(=O)C(=O)Cc1nc2ccccc2s1 | > 100 µM |
| CC[N+]1(C)CCC(O)(c2ccc(Cl)c(Cl)c2)C(C(=O)c2ccc(Cl)c(Cl)c2)C1 (centres undefined) | > 10 µM |
| N#CC(c1nc2ccccc2nc1Cl)S(=O)(=O)c1ccccc1 (centres undefined) | > 100 µM |
| C/C=C(/C)C(=O)O[C@H](C[C@@H](C)[C@H]1CC(c2ccoc2)OC1=O)[C@@]1(C)C(=O)CCC2O[C@]21C (some centres undefined) | > 100 µM |
| O=c1c2cc(I)ccc2nc(-c2cccs2)n1-c1ccc(O)cc1 | 29.8 µM |
| O=C(c1ccccc1)c1cccc(C(=O)c2ccccc2)c1 | > 100 µM |
| Clc1nc(Cl)c2ncn(C/C=C/COc3cccc(OC/C=C/Cn4cnc5c(Cl)nc(Cl)nc54)c3)c2n1 | > 100 µM |
| CC1(C)CC(=O)c2c(nc3ccc4ccccc4c3c2-c2ccc(NC(=O)CCCCCCCCC(=O)Nc3ccc(-c4c5c(nc6ccc7ccccc7c46)CC(C)(C)CC5=O)cc3)cc2)C1 | > 100 µM |
| CCOP(=O)(OCC)C1CC(n2cc(C)c(=O)[nH]c2=O)OC1CO (centres undefined) | > 100 µM |
| Nc1nc(Nc2ccc(C3CCC(N4CCOCC4)CC3)cc2)nn1-c1ccccn1 (centres undefined) | 11.4 µM |
| CCN(C(=S)N[C@H](C(=O)N[C@@H](C)C(=O)OC)C(C)C)c1ccccc1 | > 100 µM |
| COc1ccc(OC)c(NC(=O)CCC/C(CC(=O)c2ccc(O)c(OC)c2)=N\Nc2ccc([N+](=O)[O-])cc2)c1 | > 100 µM |
| COc1ccc(C(=O)c2cc3c(N)c(C(=O)Nc4cccc5ccccc45)sc3nc2C)cc1 | > 50 µM |
| COc1cc(/C=C2/C[C@H]3[C@@H]4CC=C5C[C@@H](OC(C)=O)CC[C@]5(C)[C@H]4CC[C@]3(C)NC2=O)cc(OC)c1OC | 36.7 µM |

====

tested on: HL-60(TB) leukemia; experiment: NCI tumour cell line growth inhibition, 48 h
Readout Name: TGI

| Molecule | Result |
| --- | --- |
| CCOC(=O)c1c(N2CCCC2)ncn(Cc2ccccc2)c1=S | > 100 µM |
| CCc1ccc(NC(=O)COC(=O)c2cc([N+](=O)[O-])ccc2Sc2nnnn2C)cc1 | 49.7 µM |
| C#CCSC(C=C=C)P(=O)(OC(C)C)OC(C)C (configuration not stated) | > 100 µM |
| C[Si](C)(C)c1ccc(-c2sc(-c3ccc([Si](C)(C)C)s3)c3c2C[Si]2(C3)Cc3c(-c4ccc([Si](C)(C)C)s4)sc(-c4ccc([Si](C)(C)C)s4)c3C2)s1 | > 100 µM |
| CCCC(=O)NC(Nc1ccc(S(=O)(=O)Nc2nc(C)cc(C)n2)cc1)(C(F)(F)F)C(F)(F)F | > 100 µM |
| COc1ccc(C2SC(C)C(=O)N2NC(=O)C(O)c2ccccc2)cc1OC (configuration not stated) | > 100 µM |
| COc1c(O)cc(O)c2c(=O)cc(-c3ccccc3)oc12 | 57.3 µM |
| O=C1CC(S(=O)(=O)O)C=C1Nc1cccc(Cl)c1 (configuration not stated) | > 100 µM |
| Cc1ccc2c(c1C)C(=O)/C(=C/c1ccccc1C(=O)O)C2 | > 100 µM |
| CCCOC(=O)N1CCN(/[N+]([O-])=N/Oc2ccc([N+](=O)[O-])cc2[N+](=O)[O-])CC1 | 8.15 µM |
| NC(=O)c1c(NC(=O)c2ccc3c(c2)OCO3)sc2c1CCC(=O)C2 | 8.28 µM |
| COc1ccc(/C=C2\CCCC3=C2NC(N)=NC3c2ccc(OC)c(OC)c2)cc1OC (configuration not stated) | > 100 µM |
